- Tested on: adjuvant-induced arthritis in rats
- assay.method.text: Established Adjuvant-Induced Arthritis in Rats (paw volume reduction)
- Type: in vivo, Lewis (Wistar) male rats
- condition.context: 25 mg/kg, oral gavage once daily for 7 days (days 14-20), paw volume on day 21
// reported percent paw volume reduction at the dose indicated per item
Supply the numeric figure in %, leaving out any unit text.

Study these solved cases before continuing.
>>> df
                                   molecule  reading
0  COc1ccc(-c2nc(S(=O)(=O)c3ccc(OC)cc3)[nH]c2-c2ccc(OC)cc2)cc1 [Example 8]       16
1  COc1ccc(-c2nc(Sc3ccccc3)[nH]c2-c2ccc(OC)cc2)cc1 [Example 2]       32
2  COc1ccc(-c2nc(S(=O)(=O)c3ccc(Cl)cc3)[nH]c2-c2ccc(OC)cc2)cc1 [Example 5]       31

Continue with the molecule presented below.
Lab note: measured percent paw volume reduction at the dose indicated of COc1ccc(-c2nc(Sc3ccc(F)cc3)[nH]c2-c2ccc(OC)cc2)cc1 [Example 3] was 35
